- TESTED_TARGET: M5
- PROTOCOL: ELISA on coated antigen, column M5
Known absorbance at 490 nm of a selection of binders
Respond using a number only.

Known results for binders:
// returns reported absorbance at 490 nm for input PDL1-31D9 (antibody, V domains shown, Only FR/CDR pieces are tied to the clone) VH: QMQLVESGGGLVQPGGSLRLSCSASGFTFSSYVMHWVRQAPGKGLEYVSAISSNGGSTYYADSVKGRFTISRDNSKNTLYLQMSSLRSEDTAVYYCAREHFSTYSYGVDVWGPGTTVTVSS VL: DIVMTQTPLSLPVTPGEPASISCRSSQSLLDSDDGNTYLDWYLQKPGQSPQLLIYMISFRASGVPDRFSGSGSGTDFTLKISRVEAEDSGIYYCMQRVEFPYTFGQGTKLEIK
1.8

Similarly, PDL1-22B10 (antibody, V domains shown, Only FR/CDR pieces are tied to the clone) VH: QVQLVQSGAEVKKPGSSVKVSCRASGGTFSSYAISWVRQAPGQGLEWMGRIIPILGIANYAQKFQGRVTITADKSTSTAYMELSSLRSEDTAVYYCARDFVLSGSATVFDPWGQGTLVTVSS VL: QFVLTQPPSVSGAPGQRVTISCTGSSTNIGAGYDVHWYQQLPGKAPKVVIYGNSNRPSGVLDRFSASKSATSASLAITGLQAEDEADYYCQSYDSSLSGYVFGTGTKVTVL ?
2.5

Let's switch to this binder now.
// returns reported absorbance at 490 nm for input PDL1-27F8 (antibody, V domains shown, Only FR/CDR pieces are tied to the clone) VH: QVQLVQSGAEVKKPGSSVKVSCKASGGTFSSSAFSWVRQAPGHGLEWMGRIIPMFDMTDYAQRFQGRLTIIADESSSTAYMELSSLRSEDTAVYYCARSNPHYMDVWGQGTTVTVSS VL: QLVLTQPPSVSGAPGQRVTISCTGSNSDIGAGHDVHWYQQIPGTAPKVLIYGNTDRPSGVPDRFSGSKSGTSASLAITGLQAEDEADYYCQSYDSSLSGYVFGTGTKVTVL
2.9
